Every entry's value here was drawn from patent US20250051449A1.

The entries below come with measured CD112 blocking max inhibition ELISA (%) values attached.
Target: T1, CD112R-hIgG4 fusion protein (human, UniProt Q6DKI7 41-171, limits assumed)
T1 construct: also called human CD112R-hIgG4; not shown: human IgG4 portion (hIgG4)
T1 sequence (looked up): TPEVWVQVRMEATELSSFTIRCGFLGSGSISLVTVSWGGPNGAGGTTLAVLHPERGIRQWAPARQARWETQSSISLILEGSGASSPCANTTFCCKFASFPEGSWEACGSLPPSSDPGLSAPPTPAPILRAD
Assay: blocking ELISA: coated CD112R-hIgG4, antibody, then biotinylated CD112 Fc
Answer format: numeric, % implied, no suffix.

Past entries and their recorded results:
>>> reported("Antibody 44 (antibody, V domains shown, Purified as IgG; compared with an IgG1 isotype control and detected with anti-human IgG Fc; also called antibody clone number 44; clone 44) VH: QVQLVQSGAEVKKPGSSVKVSCKASGGTFDNYYISWVRQAPGQGLEWMGGIFPIFGTANYAQKFQGRVTITADESTSTAYMELSSLRSEDTAVYYCAREVGHYSGSPYYMDVWGKGTTVTVSS VL: DIQMTQSPSTLSASVGDRVTITCRASQSINSWLAWYQQKPGKAPKLLISDASSLESGVPSRFSGSGSGTEFTLTISSLQPDDFATYYCQQVGPYLTFGGGTKVEIK")
96.8
>>> reported("Antibody 34 (antibody, V domains shown, Purified as IgG; compared with an IgG1 isotype control and detected with anti-human IgG Fc; also called antibody clone number 34; clone 34) VH: QVQLVQSGAEVKKPGSSVKVSCKASGGTFSSAAISWVRQAPGQGLEWMGGIFPISGHANYAQKFQGRVTITADESTSTAYMELSSLRSEDTAVYYCARDTGRGYTRHFWFDPWGQGTLVTVSS VL: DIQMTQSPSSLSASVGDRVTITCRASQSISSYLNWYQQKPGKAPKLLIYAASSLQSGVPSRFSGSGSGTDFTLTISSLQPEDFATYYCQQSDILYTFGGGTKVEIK")
80
>>> reported("Antibody 32 (antibody, V domains shown, Purified as IgG; compared with an IgG1 isotype control and detected with anti-human IgG Fc; also called antibody clone number 32; parent clone 32) VH: QVQLVQSGAEVKKPGSSVKVSCKASGGTFSSYAISWVRQAPGQGLEWMGGIIPISGTANYAQKFQGRVTITADESTSTAYMELSSLRSEDTAVYYCARDTGRGYTRHFWFDPWGQGTLVTVSS VL: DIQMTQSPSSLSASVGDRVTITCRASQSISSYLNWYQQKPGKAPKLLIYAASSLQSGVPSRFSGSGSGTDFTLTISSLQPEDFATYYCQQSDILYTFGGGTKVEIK")
75.1
>>> reported("Antibody 35 (antibody, V domains shown, Purified as IgG; compared with an IgG1 isotype control and detected with anti-human IgG Fc; also called antibody clone number 35; clone 35) VH: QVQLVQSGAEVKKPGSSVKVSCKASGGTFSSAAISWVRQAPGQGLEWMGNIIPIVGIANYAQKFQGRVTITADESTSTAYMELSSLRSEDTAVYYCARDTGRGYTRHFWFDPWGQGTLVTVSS VL: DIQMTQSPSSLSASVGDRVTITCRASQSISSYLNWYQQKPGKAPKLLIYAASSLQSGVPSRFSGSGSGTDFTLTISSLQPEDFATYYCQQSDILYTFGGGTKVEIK")
81.7
>>> reported("Antibody 36 (antibody, V domains shown, Purified as IgG; compared with an IgG1 isotype control and detected with anti-human IgG Fc; also called antibody clone number 36; clone 36) VH: QVQLVQSGAEVKKPGSSVKVSCKASGGTFATYAISWVRQAPGQGLEWMGGIFPLSGTANYAQKFQGRVTITADESTSTAYMELSSLRSEDTAVYYCARDTGRGYTRHFWFDPWGQGTLVTVSS VL: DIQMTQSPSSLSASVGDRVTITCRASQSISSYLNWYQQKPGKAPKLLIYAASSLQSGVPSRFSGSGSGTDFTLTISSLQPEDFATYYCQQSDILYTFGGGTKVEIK")
86.2
>>> reported("Antibody 46 (antibody, V domains shown, in the mouse tumor studies it was used as mouse IgG2a; also called antibody clone number 46; clone 46) VH: EVQLVESGGGLVQPGRSLRLSCTASGFTFGDYAMSWFRQAPGKGLEWVGFIGSKAYGGTTEYTASVKGRFTISRDGSKSIAYLQMNSLKTEDTAVYYCARGPRRYTYGMDVWGQGTTVTVSS VL: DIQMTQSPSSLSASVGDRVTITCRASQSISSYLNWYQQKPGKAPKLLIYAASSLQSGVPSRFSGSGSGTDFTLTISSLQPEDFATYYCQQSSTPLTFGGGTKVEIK")
97.6

Form field CD112 blocking max inhibition ELISA (%), entry Antibody 10 (antibody, V domains shown, Purified as IgG; compared with an IgG1 isotype control and detected with anti-human IgG Fc; also called antibody clone number 10; clone 10) VH: EVQLVESGGGLVQPGRSLRLSCAASGFTFDDYAVHWVRQAPGKGLEWVSGISWSSGLIGYADSVKGRFTISRDNAKNSLYLQMNSLRAEDTAVYYCAKGPPTYQDYFDLWGRGTLVTVSS VL: EIVLTQSPATLSLSPGERATLSCRASQSVSRYLAWYQQKPGQAPRLLIYDASNRATGIPARFSGSGSGTDFTLTISSLEPEDFAVYYCQQVSFFPPITFGGGTKVEIK : 96.3

Form field CD112 blocking max inhibition ELISA (%), entry Antibody 15 (antibody, V domains shown, Purified as IgG; compared with an IgG1 isotype control and detected with anti-human IgG Fc; also called antibody clone number 15; clone 15) VH: EVQLVESGGGLVQPGRSLRLSCTASGFTFGDVAMSWFRQAPGKGLEWVGYIGSKAYGGETEYTASVKGRFTISRDGSKSIAYLQMNSLKTEDTAVYYCARAGHSYGSIASNWFDPWGQGTLVTVSS VL: DIQMTQSPSSLSASVGDRVTITCRASQSISSYLNWYQQKPGKAPKLLIYGASSLQSGVPSRFSGSGSGTDFTLTISSLQPEDFATYYCQQGFYTPWTFGGGTKVEIK : 97

Form field CD112 blocking max inhibition ELISA (%), entry Antibody 58 (antibody, V domains shown, Purified as IgG; compared with an IgG1 isotype control and detected with anti-human IgG Fc; also called antibody clone number 58; clone 58) VH: EVQLVESGGGLVQPGRSLRLSCTASGFTFGDYAMSWFRQAPGKGLEWVGFIGSKFYGGETEYTASVKGRFTISRDGSKSIAYLQMNSLKTEDTAVYYCARGPRRYTYGMDVWGQGTTVTVSS VL: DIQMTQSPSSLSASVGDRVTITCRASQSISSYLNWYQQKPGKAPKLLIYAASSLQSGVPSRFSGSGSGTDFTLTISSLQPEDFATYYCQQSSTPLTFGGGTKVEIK : 97.3

Form field CD112 blocking max inhibition ELISA (%), entry Antibody 5 (antibody, V domains shown, Purified as IgG; compared with an IgG1 isotype control and detected with anti-human IgG Fc; also called antibody clone number 5; clone 5) VH: EVQLLESGGGLVQPGGSLRLSCAASGFTFSDYAMIWVRQAPGKGLEWVSAISGGGESTYYADSVKGRFTISRDNSKNTLYLQMNSLRAEDTAVYYCAKDYSSGDWIDYGMDVWGQGTTVTVSS VL: DIQMTQSPSSLSASVGDRVTITCQASQDISNYLNWYQQKPGKAPKLLIYDASNLATGVPSRFSGSGSGTDFTFTISSLQPEDIATYYCQQFDLLPPTFGGGTKVEIK : 97.4
